System: T1, human ferroportin (SLC40A1) fused in frame with GFP, stably expressed in HEK293 cells (human, UniProt Q9NP59 1-571)
T1 sequence (looked up): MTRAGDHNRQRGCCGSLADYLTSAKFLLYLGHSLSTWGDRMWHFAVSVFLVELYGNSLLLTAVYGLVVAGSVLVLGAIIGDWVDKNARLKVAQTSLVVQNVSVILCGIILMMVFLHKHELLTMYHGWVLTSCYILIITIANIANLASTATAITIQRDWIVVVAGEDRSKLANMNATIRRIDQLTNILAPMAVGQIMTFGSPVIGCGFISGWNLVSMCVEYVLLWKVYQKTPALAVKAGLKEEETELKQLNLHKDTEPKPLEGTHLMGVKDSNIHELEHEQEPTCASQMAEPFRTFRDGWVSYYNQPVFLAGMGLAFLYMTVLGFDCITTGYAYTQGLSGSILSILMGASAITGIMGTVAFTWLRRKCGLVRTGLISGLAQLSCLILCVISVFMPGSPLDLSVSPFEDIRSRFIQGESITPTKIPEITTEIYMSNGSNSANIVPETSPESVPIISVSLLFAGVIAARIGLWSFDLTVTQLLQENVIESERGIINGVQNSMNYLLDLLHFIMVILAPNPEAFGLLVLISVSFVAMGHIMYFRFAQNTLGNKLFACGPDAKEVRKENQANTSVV
Assay Explanation: cell-based or functional assay
Experimental Endpoint: Potency: percent at the stated concentration, ferroportin-GFP internalization/degradation (% at 1 µM)

Worked cases, answers included:
INSERT INTO assay_data (binder, unit_tag, val) VALUES
  ('H-DTKFPCIIF-NH2 [Hy-DTKFPCIIF-NH2]', '% at 1 µM', 60),
  ('H-DTHFPCILK-NH2 [Hy-DTHFPCILK-NH2]', '% at 1 µM', 55),
  ('H-DTHFPCILF-NH2 [Hy-DTHFPCILF-NH2]', '% at 1 µM', 89),
  ('H-ETHFPCIIF-NH2 [Hy-ETHFPCIIF-NH2]', '% at 1 µM', 77),
  ('H-DTHFPCIIK-NH2 [Hy-DTHFPCIIK-NH2]', '% at 1 µM', 55);

(P) H-DTHFPCIKFF-NH2 [Hy-DTHFPCIKFF-NH2]
(Q) H-DTHFPCIEK-NH2 [Hy-DTHFPCIEK-NH2]
Lab note: check whether P or Q shows the higher recorded Potency: percent at the stated concentration, ferroportin-GFP internalization/degradation. Your answer should be the label attached to the chosen record.
P
